- assay.method.text: protein stability index of a GFP-peptide fusion (yeast GPS) (PSI 1-4); higher = more stable; sorted into four equal gates, so the index is relative within each strain
- test.context: ubr1∆
Reported values of protein stability index for individual entries
Note: the reply should be a number with no unit written.

KLSEIILNINNSTSKNT [SWI1]	3.01
AIPLQQVLSQSADPSLL [SWI1]	3.06
PNETSEIAQANSRNAIR [RPL19A]	3.05

Value lookup for protein stability index; key = ESDSKLQCHISGTTNFM [UBP6]
3.08

====

- assay.method.text: protein stability index of a GFP-peptide fusion (yeast GPS) (PSI 1-4); higher = more stable; sorted into four equal gates, so the index is relative within each strain
- test.context: pdr5∆
measured.quantity: protein stability index

SIQEQIQEFQGNPYIEL [SNF5]	3.3
TSSIFQESFNSVQNLDQ [NUT1]	2.64
TAFALGIACAGKGLQSA [RPN2]	1.33
LQLASLQQKQRDLILKK [SMC3]	2.46

Given the sequence SGTSVFEVEMILMQQQM [SRP54] , what is its reported protein stability index?
3.23

Any idea what protein stability index was measured for RDIFQEDEENSDVLLFQ [RGR1] ?
3.46

Which protein stability index is listed for EEDISDLWNNFGNIMDN [RRP6] ?
2.98

Using the record for LARHLPAELDLRGSLLS [RPC82] , report its protein stability index.
3.16

I would be grateful if you could share the reported protein stability index for GFSMNNPYNIVPQGKIV [SMC3] .
2.93

Entry LSFINPKTGKVERSEAI [SEC65] : reported protein stability index = ?
3.47

For the sequence shown here, GSNVLKSGKTIVITSIT [RRP43] , give the reported protein stability index.
2.57

Returns the measured protein stability index for the input sequence. Input: FEETKLSTTPTKSNRRV [SIR4]
2.83

Data request, read-out protein stability index, for NVAKNMKTPSLTVYLEP [RPO21]
2.86

Need protein stability index, item DYPSTSLDIRHDFIKGL [NUT1]
2.88

I have this sequence here, VTDSSLLKLLTRLVQLR [GRR1] , and I need its recorded protein stability index.
1.7

Recorded protein stability index for EIFIRCNNVLYIRELPN [SMX3] , please?
1.75

Dear colleague, I am looking for the recorded protein stability index of the following sequence: INDFKKIGRENENENED [POP5]
3.38

Dear colleague, I am looking for the recorded protein stability index of the following sequence: STELNNKQYELFMKSLI [SWI1]
2.94

Which protein stability index value is on record for GTLGEIFIRCNNVLYIR [SMX3] ?
3.27
